Molecular target: UniProt:P08842
Sequence (P08842 whole entry): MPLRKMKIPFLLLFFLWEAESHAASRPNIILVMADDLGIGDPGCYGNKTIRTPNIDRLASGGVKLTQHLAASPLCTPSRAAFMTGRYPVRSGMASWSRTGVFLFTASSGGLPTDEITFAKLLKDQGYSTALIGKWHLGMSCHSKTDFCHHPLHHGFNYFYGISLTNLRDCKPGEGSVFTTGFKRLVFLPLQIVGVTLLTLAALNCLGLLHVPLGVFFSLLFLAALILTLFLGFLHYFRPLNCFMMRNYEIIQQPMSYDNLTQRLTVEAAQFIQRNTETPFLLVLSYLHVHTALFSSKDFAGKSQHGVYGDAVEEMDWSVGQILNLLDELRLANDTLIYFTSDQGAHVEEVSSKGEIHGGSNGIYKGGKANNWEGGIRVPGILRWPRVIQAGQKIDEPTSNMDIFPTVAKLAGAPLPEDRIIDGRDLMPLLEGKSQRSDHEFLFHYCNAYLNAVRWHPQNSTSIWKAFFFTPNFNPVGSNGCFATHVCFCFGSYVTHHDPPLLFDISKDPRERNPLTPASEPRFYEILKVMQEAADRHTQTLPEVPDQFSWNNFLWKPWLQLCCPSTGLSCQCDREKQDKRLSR
Experiment: Inhibitory activity againist Estrone sulfatase from MCF-7 cells ([…])
pIC50: −log10 of the molar value.
Kind request: treat 5 as inclusive, so pIC50 at 5 or higher is TRUE, anything lower is FALSE.

Below are worked cases with known answers.
# Compound, Class label
measured = [
    ("COc1c2c(c(O)c3c1C(=O)c1c(cc(O)c(C)c1O)C3=O)-c1c(cc(/C=N/N=C(/N)S)c(C(=O)O)c1O)CC2", "FALSE"),
    ("COc1c2c(c(O)c3c1C(=O)c1c(cc(O)c(C)c1O)C3=O)-c1c(cc(/C=N/N=C(\\S)N(C)C3CCCCC3)c(C(=O)O)c1O)CC2", "TRUE"),
    ("COc1c2c(c(O)c3c1C(=O)c1c(cc(O)c(C)c1O)C3=O)-c1c(cc(/C=N/N=C(\\S)NC3CCCC3)c(C(=O)O)c1O)CC2", "TRUE"),
    ("COc1c2c(c(O)c3c1C(=O)c1c(cc(O)c(C)c1O)C3=O)-c1c(cc(/C=N/N=C(\\S)NC3CCCCCCC3)c(C(=O)O)c1O)CC2", "FALSE"),
    ("COc1c2c(c(O)c3c1C(=O)c1c(cc(O)c(C)c1O)C3=O)-c1c(cc(/C=N/N=C(\\S)Nc3ccccc3)c(C(=O)O)c1O)CC2", "TRUE"),
    ("CCCC/N=C(\\S)N/N=C/c1cc2c(c(O)c1C(=O)O)-c1c(O)c3c(c(OC)c1CC2)C(=O)c1c(cc(O)c(C)c1O)C3=O", "TRUE"),
]

Exam item: Given the entry COc1c2c(c(O)c3c1C(=O)c1c(cc(O)c(C)c1O)C3=O)-c1c(cc(/C=N/NC(=S)NC3CCCCC3)c(C(=O)O)c1O)CC2 [MHL CYCLOHEXYLTHIOSEMICARBAZONE] , answer whether its pIC50 meets or surpasses 5.
Marked response: TRUE

The values you see were collected from ChEMBL document CHEMBL1135104.
